Test name: Henry's Law constant (molality scale); of the first substance listed, at infinite dilution; mn = molality of the nth substance listed, in mol/kg
Assay context: 296.15 K; Liquid; Chromatography; m1 = 0
Values of Henry's Law constant greater than or equal to 200 kPa·kg/mol map to TRUE; values below map to FALSE.

Query: Is Henry's Law constant for CCCCC(C)=O [2-hexanone] + O at or above 200 kPa·kg/mol?
Reply: FALSE

Query: Can ClCC(Cl)Cl [1,1,2-trichloroethane] + O be said to have Henry's Law constant at or above 200 kPa·kg/mol?
Reply: FALSE

Query: hey, is Henry's Law constant for this one >= 200 kPa·kg/mol? Cc1cccc(C)c1 [1,3-dimethylbenzene] + O
Reply: TRUE

Query: Please tell me: is the compound Clc1cccc(Cl)c1 [1,3-dichlorobenzene] + O at or over 200 kPa·kg/mol in terms of Henry's Law constant?
Reply: FALSE

Query: Item CCC(C)c1ccccc1 (stereo not drawn) [(1-methylpropyl)benzene] + O with Henry's Law constant of 200 kPa·kg/mol or above?
Reply: TRUE

Query: Textbook exercise: given the entry CC(C)(C)c1ccccc1 [(1,1-dimethylethyl)benzene] + O , state whether its Henry's Law constant is greater than or equal to 200 kPa·kg/mol.
Reply: TRUE

Query: Test whether the compound Cc1ccccc1C [1,2-dimethylbenzene] + O records Henry's Law constant of 200 kPa·kg/mol or higher.
Reply: TRUE

Query: Given the entry ClCCCCl [1,3-dichloropropane] + O , answer whether its Henry's Law constant meets or surpasses 200 kPa·kg/mol.
Reply: FALSE

***
Query: Entry CCc1ccccc1 [ethylbenzene] + O : is its Henry's Law constant no less than 200 kPa·kg/mol?
Reply: TRUE

Query: Is Henry's Law constant at least 200 kPa·kg/mol? Consider C=Cc1ccccc1 [styrene] + O
Reply: TRUE

Query: Textbook exercise: given the entry Clc1ccc(Cl)cc1 [1,4-dichlorobenzene] + O , state whether its Henry's Law constant is greater than or equal to 200 kPa·kg/mol.
Reply: FALSE

Query: Threshold query (Henry's Law constant >= 200 kPa·kg/mol) on Cl/C=C\CCl [(Z)-1,3-dichloro-1-propene] + O
Reply: FALSE

Query: Please tell me: is the compound Cc1ccc(C)c(C)c1 [1,2,4-trimethylbenzene] + O at or over 200 kPa·kg/mol in terms of Henry's Law constant?
Reply: TRUE

Query: Textbook exercise: given the entry BrCCBr [1,2-dibromoethane] + O , state whether its Henry's Law constant is greater than or equal to 200 kPa·kg/mol.
Reply: FALSE

Query: Decide: Henry's Law constant of ClC(Cl)=C(Cl)Cl [tetrachloroethene] + O >= 200 kPa·kg/mol?
Reply: TRUE

Query: Could you verify whether the entry Cc1ccc(C)cc1 [1,4-dimethylbenzene] + O shows Henry's Law constant of no less than 200 kPa·kg/mol?
Reply: TRUE

Query: Entry Cl/C=C/CCl [(E)-1,3-dichloro-1-propene] + O : is its Henry's Law constant no less than 200 kPa·kg/mol?
Reply: FALSE

----------
Test name: Henry's Law constant (molality scale); of the first substance listed, at infinite dilution; mn = molality of the nth substance listed, in mol/kg
Assay context: 274.15 K; Liquid; Chromatography; m1 = 0
Readout name: Henry's Law constant (kPa·kg/mol)
Write the value in kPa·kg/mol as a bare number.

Example entries begin here.
Query: Please give the measured Henry's Law constant for this compound: CCCCC(C)=O [2-hexanone] + O
Reply: 0.551

Query: So what does the record say about Henry's Law constant for Cc1ccccc1C [1,2-dimethylbenzene] + O ?
Reply: 96.1

Query: Entry ClCCCCl [1,3-dichloropropane] + O has what Henry's Law constant?
Reply: 18.8

Further cases:
Query: Please look up its Henry's Law constant: CC(C)(C)c1ccccc1 [(1,1-dimethylethyl)benzene] + O
Reply: 189

Query: Bench note: what Henry's Law constant did CC(C)c1ccccc1 [isopropylbenzene] + O show?
Reply: 212

Query: Consider the compound Clc1ccccc1 [chlorobenzene] + O and give its measured Henry's Law constant.
Reply: 83.7

Query: Returns the measured Henry's Law constant for the input compound. Input: ClC(Cl)=C(Cl)Cl [tetrachloroethene] + O
Reply: 320

Query: Which value of Henry's Law constant has been reported for ClC(Br)Br [chlorodibromomethane] + O in the records?
Reply: 22.7

Query: Give its Henry's Law constant value. Item: Cc1ccc(C)c(C)c1 [1,2,4-trimethylbenzene] + O
Reply: 82.9

Query: Bench note: what Henry's Law constant did c1ccccc1 [benzene] + O show?
Reply: 193

Query: Recorded Henry's Law constant of Cl/C=C/CCl [(E)-1,3-dichloro-1-propene] + O , please.
Reply: 52.9

Query: Please look up its Henry's Law constant: Clc1cccc(Cl)c1 [1,3-dichlorobenzene] + O
Reply: 50.3
